- experimental.system: AXL kinase (Homo sapiens, UniProt P30530)
- Sequence (P30530 26-894): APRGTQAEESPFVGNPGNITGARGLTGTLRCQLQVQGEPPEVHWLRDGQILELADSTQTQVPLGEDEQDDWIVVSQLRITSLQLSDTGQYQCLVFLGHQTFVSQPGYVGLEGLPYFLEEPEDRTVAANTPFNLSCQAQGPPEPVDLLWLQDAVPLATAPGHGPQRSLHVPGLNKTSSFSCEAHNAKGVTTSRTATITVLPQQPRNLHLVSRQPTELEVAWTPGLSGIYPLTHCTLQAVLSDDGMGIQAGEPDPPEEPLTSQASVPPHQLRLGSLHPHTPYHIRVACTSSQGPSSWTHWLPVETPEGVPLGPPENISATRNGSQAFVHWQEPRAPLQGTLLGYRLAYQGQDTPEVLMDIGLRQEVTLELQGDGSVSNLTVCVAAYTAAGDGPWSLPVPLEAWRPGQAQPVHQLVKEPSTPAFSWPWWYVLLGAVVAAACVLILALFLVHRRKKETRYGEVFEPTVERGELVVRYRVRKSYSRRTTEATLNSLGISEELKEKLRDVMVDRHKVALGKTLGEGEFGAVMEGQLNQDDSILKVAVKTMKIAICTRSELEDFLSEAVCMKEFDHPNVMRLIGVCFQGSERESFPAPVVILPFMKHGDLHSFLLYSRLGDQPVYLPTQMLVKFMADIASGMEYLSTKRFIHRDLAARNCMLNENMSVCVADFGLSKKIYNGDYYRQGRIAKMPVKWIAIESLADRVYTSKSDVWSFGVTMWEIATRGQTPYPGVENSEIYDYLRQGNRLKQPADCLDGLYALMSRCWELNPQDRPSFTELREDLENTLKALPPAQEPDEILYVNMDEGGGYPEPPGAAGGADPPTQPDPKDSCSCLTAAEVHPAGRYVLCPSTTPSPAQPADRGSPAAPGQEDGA
pIC50: −log10 of the molar value.
reported.property: pIC50

State its pIC50 on AXL kinase (Homo sapiens, UniProt P30530): `CN1CCN(c2ccc(Nc3nc(-c4ccc(F)c(Cl)c4)cc(-c4ccc[nH]4)n3)cc2F)CC1`
4.48

State its pIC50 on AXL kinase (Homo sapiens, UniProt P30530): `CN1CCN(c2ccc(Nc3nc(-c4ccc(F)c(Cl)c4)cc(-c4ccc(F)c(Cl)c4)n3)cc2F)CC1`
4.33
